Attribution: ChEMBL document CHEMBL3988442

# target-of-assay: Chromo domain-containing protein 1 (Saccharomyces cerevisiae (strain ATCC 204508 / S288c) (Baker's yeast))
# test-protocol: ScCHD-1 Enzyme Inhibition Assay; also: in the data most compounds retested in dose-response had high values
# Type: functional
# Parameters: scale not given: direction of the effect not stated beside the values
# protocol-conditions: 30 µM
test-readout: Percent Effect (%)
Answers are plain numbers, in %.

Below are 5 compounds. Give each one its Percent Effect.
1. CCN(CC)C(=O)Cn1ccc2cc(NC(=O)C3CCCO3)ccc21 (stereo not drawn)
2. Clc1snnc1CN1CCCCC1Cn1cncn1 (stereo not drawn)
3. CCc1cc(N[C@H]2CC[C@H](O)CC2)n2nc(C)c(C)c2n1
4. Cc1nn(CC(C)C)c(N(C)C)c1CNCc1cc2ccccc2[nH]1
5. O=C(CN1CCCC1Cn1cncn1)NCCc1c(F)cccc1F (stereo not drawn)

stdout:
-14.2
-4.67
-3.52
-8.01
-10.6

Give Percent Effect for all compounds that follow.
1. CCc1nnc(CN2CCN(C(=O)c3cc4ccccc4[nH]3)CC2)o1
2. CCOc1cc(C)nc(N2CCN(Cc3nccn3C)CC2)n1
3. CC(c1ccccc1)n1c(SCC(=O)O)nnc1-c1ccccc1Cl (stereo not drawn)
4. O=C(NCC(=O)N1CCCCC1)c1ccc(Cl)cc1I
5. CCn1c(CN(C)C)nnc1C1CCN(Cc2cccc(OC)c2)CC1
6. CCOCCOc1ccccc1C(=O)N1CCCC(c2ncc[nH]2)C1 (stereo not drawn)

stdout:
1: -14.7; 2: -4.66; 3: -5.19; 4: -1.27; 5: 0.325; 6: -11.5

Could I get Percent Effect for every one of these entries?
1. COc1ccc(-c2noc(C(=O)NCCN3CCCCC3)n2)cc1OC
2. Cc1nc2ccccc2nc1CN1CCCC1c1c(C)nn(C)c1C (stereo not drawn)
3. Cc1ccc(OCCNC(=O)C(C)n2cncn2)cc1 (stereo not drawn)
4. COc1cccc(COCC(=O)N2CCCC(c3cc(C)[nH]n3)C2)c1 (stereo not drawn)
5. N#CC1(C(=O)N2CCN(Cc3ccon3)CC2)CCC1

stdout:
-13.9
-26.1
-3.56
-4.89
-3.39

* * *

# target-of-assay: Tyrosyl-tRNA synthetase, putative (Trypanosoma cruzi (strain CL Brener))
# test-protocol: Trypanosoma cruzi tyrosyl tRNA synthetase (TcYRS) SOP
# Assay type: functional
# Set-up: scale not given: direction of the effect not stated beside the values
# protocol-conditions: 30 µM
test-readout: Percent Effect (%)
Numbers only, in %.

INSERT INTO results (compound, observed_value) VALUES
  ('CC(C)c1nccn1CCCNC(=O)c1ccc(N(C)C)nc1', 8.64),
  ('COCCn1cc2c(n1)C(CNCc1ccc(F)cc1)OCC2 (configuration not stated)', 11),
  ('Cn1ccnc1-c1cccc(NC(=O)NCCCO)c1', 7.69),
  ('CCCc1n[nH]c(C2CN(CCNS(=O)(=O)CC)CCO2)n1 (configuration not stated)', 15.2),
  ('CCc1nnc(CNCC2CCCN2c2cccnn2)o1 (configuration not stated)', 11.1);

# map each compound to its Percent Effect
1. CC(O)CC(C)(C)CNC(=O)NCc1cccc(-n2cncn2)c1 (configuration not stated)
2. O=C(CN1CCC(c2cccc(F)c2)C1)NCc1ccco1 (configuration not stated)
3. CNC(=O)NC(=O)Cn1cc(-c2ccccc2)cn1
4. O=S(=O)(CCN1CCOC(Cn2cccn2)C1)C(F)(F)F (configuration not stated)
5. CC(C)C(C(=O)N1CCN(c2ccncc2)CC1)n1cncn1 (configuration not stated)
6. CCc1cnc(CN(C(C)=O)C2CCN(CCc3cnn(C)c3)C2)o1 (configuration not stated)

stdout:
1. 1.24
2. 24.4
3. 10.1
4. 12.7
5. 13.6
6. 18.5

stdin: I have this compound here, Cc1ccn(-c2ccccc2NCc2ncc[nH]2)n1 , and I need its recorded Percent Effect.
stdout: 10

* * *

# target-of-assay: Tyrosyl-tRNA synthetase, putative (Trypanosoma cruzi (strain CL Brener)) (UniProt Q4DSP6)
# Sequence (whole entry): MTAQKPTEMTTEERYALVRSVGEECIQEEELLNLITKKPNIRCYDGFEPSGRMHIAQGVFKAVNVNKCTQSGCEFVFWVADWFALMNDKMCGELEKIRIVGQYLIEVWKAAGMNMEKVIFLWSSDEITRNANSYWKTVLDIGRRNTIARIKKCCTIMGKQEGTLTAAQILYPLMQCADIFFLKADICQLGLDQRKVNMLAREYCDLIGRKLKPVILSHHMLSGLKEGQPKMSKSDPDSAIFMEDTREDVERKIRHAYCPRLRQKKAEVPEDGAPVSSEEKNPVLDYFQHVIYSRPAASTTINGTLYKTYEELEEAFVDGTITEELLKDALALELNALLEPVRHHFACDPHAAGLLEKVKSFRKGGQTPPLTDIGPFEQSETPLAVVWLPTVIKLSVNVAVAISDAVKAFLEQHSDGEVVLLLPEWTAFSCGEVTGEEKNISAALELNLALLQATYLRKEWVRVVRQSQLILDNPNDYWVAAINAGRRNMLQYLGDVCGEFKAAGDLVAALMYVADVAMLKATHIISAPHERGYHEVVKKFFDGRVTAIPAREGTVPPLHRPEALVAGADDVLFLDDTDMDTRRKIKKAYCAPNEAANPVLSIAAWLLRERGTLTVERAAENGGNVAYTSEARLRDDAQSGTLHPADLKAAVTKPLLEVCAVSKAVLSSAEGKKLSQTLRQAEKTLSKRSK
# test-protocol: Trypanosoma cruzi tyrosyl tRNA synthetase (TcYRS) SOP
# Assay type: functional
# Parameters: scale not given: direction of the effect not stated beside the values
# protocol-conditions: 30 µM
Hi there, I'd appreciate the recorded Percent Effect for every entry that follows.
One number for each entry, in %.

Please review the entries below; each comes with its answer.
INSERT INTO measurements (molecule, unit_annotation, observed_value) VALUES
  ('COC(=O)c1ccc2ccn(CC3CCCO3)c(=O)c2c1 (centres undefined)', '%', 10),
  ('CCc1noc(C2CCN(C(=O)CCn3nc(C)cc3C)CC2)n1', '%', 16.1),
  ('O=C(NCc1cc[nH]n1)NC1CCCN(c2ncccn2)C1 (centres undefined)', '%', 13),
  ('Cn1cnc(S(=O)(=O)NCCCN2CCOCC2)c1Cl', '%', 3.7),
  ('Cc1c(C)n(Cc2ccccn2)c2nc3c(c(N)c12)CCCC3', '%', 5.13),
  ('O=C(NCc1ccccn1)Nc1cc(C(F)(F)F)c[nH]c1=O', '%', 18.3),
  ('Cc1cccc(-n2cc(C(=O)N3CCCC(n4cccn4)C3)nn2)c1 (centres undefined)', '%', 25.9),
  ('Cc1nc(CN2CCCC(N(C)CCc3cccs3)C2)no1 (centres undefined)', '%', 2.56);

I have 3 molecules here; please give me Percent Effect for each one.
1. N#Cc1cccnc1NCc1cccnc1N1CCC(C(N)=O)CC1
2. Cc1cc(NC(=O)c2nc(N3CCCC3)ncc2Cl)nc(C(C)C)n1
3. Cc1ncc(C)c(N2CCCC(CO)(Cc3cccc(Cl)c3)C2)n1 (centres undefined)

stdout:
1. 13.6
2. 8.54
3. 13.6

# batch size: 4; output Percent Effect per entry
1. CC(C(N)=O)S(=O)(=O)Cc1cc(Cl)c2c(c1)OCO2 (centres undefined)
2. Cn1nc(C2CCCN(C(=O)Cc3ccsc3)C2)c2nccnc21 (centres undefined)
3. Cn1cc(C(=O)NCc2cn3c(n2)CN(CC2CCOCC2)CC3)cn1
4. Cc1cccc(-c2nc(CN3CCc4c(ncn4C)C3)no2)c1

stdout:
[13.6, 6.49, 15.8, -2.44]

Give Percent Effect for each of the items listed below.
1. CN1CCCC1CNC(=O)c1nnn(-c2ccc(F)cc2)c1C1CC1 (centres undefined)
2. OC1(CN2CCCC2)CCCN(Cc2ccc(F)cc2Cl)C1 (centres undefined)
3. CN(C)C1CCN(C(=O)c2ccc(Cn3ccccc3=O)o2)CC1

stdout:
1. 3.66
2. 11.1
3. 23.2

Provide Percent Effect values for the following items, in order.
1. Cc1cc(F)cc(S(=O)(=O)NCCCN2CCC(O)CC2)c1
2. O=C(Cc1ccc2c(c1)OCCO2)N1CCCC(n2cccn2)C1 (centres undefined)
3. Cc1noc([C@H]2CC[C@@H]3[C@@H](CCN3S(C)(=O)=O)O2)n1
4. CC(C)N1CCC(N2CCN(C3CCC3)CC2CCO)CC1 (centres undefined)
5. Cc1ccc(CN2CCc3ncc(CNS(C)(=O)=O)n3CC2)o1
6. Cc1nc(CN(C)C2CCN(Cc3sc(C)nc3C)C2)no1 (centres undefined)

stdout:
1. 23.5
2. -2.35
3. 11
4. 5.13
5. 16.1
6. 11.1

* * *

# Test system: Trypanosoma cruzi
# test-protocol: Trypanosoma cruzi phosphomannomutase and mannose-1-phosphate guanylyltransferase assay
# Format: functional
# Parameters: scale not given: direction of the effect not stated beside the values
# protocol-conditions: 10 µM
I'd appreciate it if you could supply Percent Effect values for the items below.
One number for each entry, in %.

// below: answered compounds
INSERT INTO results (compound, target_of_assay, observed_value) VALUES
  ('CSCC(CCO)NC(=O)Nc1cccc(Br)c1 (configuration not stated)', 'Trypanosoma cruzi', -3.53),
  ('COCCOc1ccccc1C(=O)N1CCCCC1c1nccs1 (configuration not stated)', 'Trypanosoma cruzi', 7.45),
  ('c1ccc(CN2CCCC(c3nccnc3-n3ccnc3)C2)cc1 (configuration not stated)', 'Trypanosoma cruzi', 0.591);

Hi team, please reply with Percent Effect for each item in this list.
1. Cn1cc(C(=O)NCc2cn3c(n2)CN(CC2CCOCC2)CC3)cn1
2. CC(C)CCN1CCNC(=O)C1CC(=O)N1CCc2sccc2C1 (configuration not stated)
3. CCc1nc(C2CCCN2Cc2nccn2Cc2ccccc2)no1 (configuration not stated)
4. OC(CN1CCCCCCC1)c1ccc(F)cc1 (configuration not stated)
5. Cc1nn2c(N3CCC(O)C3)cc(-c3ccccc3)nc2c1C (configuration not stated)
6. COCCCn1ccnc1-c1cnc(OC)nc1
7. CCc1nc(CCNC(=O)Nc2cc(C(N)=O)sc2C)cs1
8. COC(=O)c1ccccc1NC(=O)c1nc2ccccc2n(C)c1=O

stdout:
-1.95
3.44
2.25
7.33
2.58
-0.386
-4.19
5.82

stdin: Would you kindly share the measured Percent Effect for Cc1ccc2c(n1)N(CCn1cccn1)CCN(C(=O)CC1CC1)C2 ?
stdout: -4.4
